Assay: CCTE_Padilla_ZF_Score.Edema: CCTE's 144 Hour Post-fertilization zebrafish Assay Score for Edema Malformation, Padilla Lab (AID 2284406)
Calls of active or inactive are those of the source. The calls were made as follows: active = hit-call score of the fitted dose curve at least 0.9, where 1 is the maximum; inactive = score below 0.9.
Write down one outcome, taken from active, inactive

Could you please tell me the result logged for O=C(O)C(F)(F)C(F)(F)C(F)(F)C(F)(F)C(F)(F)C(F)(F)C(F)(F)C(F)(F)C(F)(F)C(F)(F)C(F)(F)C(F)(F)F in this assay? inactive

Could you please tell me the result logged for O=S(=O)(OCCOC(F)(F)F)C(F)(F)F in this assay? inactive

* * *

Read-out: Matrix Metallopeptidase 9 (MMP9), MMP9 (gene 4318)
Test: BSK_BE3C_MMP9: BioMAP Diversity Plus: BE3C Assay for Matrix Metallopeptidase 9 (MMP9) Biomarker Activity (AID 2284283)
Conditions: primary human bronchial epithelial cells
The source made the active and inactive calls. How the source made its calls: active means hit-call score of the fitted dose curve at least 0.9, where 1 is the maximum; inactive means score below 0.9.
endpoint: outcome

Sample records with outcome:
[
  {
    "compound": "O=C(O)C(F)(F)C(F)(F)C(F)(F)C(F)(F)F",
    "outcome": "inactive"
  },
  {
    "compound": "C=C(C)C(=O)OCC(F)(F)C(F)(F)C(F)(F)C(F)(F)C(F)(F)C(F)(F)C(F)(F)F",
    "outcome": "inactive"
  },
  {
    "compound": "COC(=O)CCC(F)(F)C(F)(F)C(F)(F)C(F)(F)F",
    "outcome": "inactive"
  },
  {
    "compound": "FC(F)(F)C(F)(F)C(F)(F)N(C(F)(F)C(F)(F)C(F)(F)F)C(F)(F)C(F)(F)C(F)(F)F",
    "outcome": "inactive"
  },
  {
    "compound": "C=CC(=O)OCC(F)(F)C(F)(F)C(F)(F)C(F)(F)C(F)(F)C(F)(F)C(F)(F)F",
    "outcome": "inactive"
  },
  {
    "compound": "FC(F)(F)C(F)(F)C(F)(F)CI",
    "outcome": "inactive"
  },
  {
    "compound": "FC(F)(F)C(F)(F)C(F)(F)C(F)(F)C(F)(F)C(F)(F)C(F)(F)C(F)(F)CCS",
    "outcome": "inactive"
  },
  {
    "compound": "FC(F)(F)C(F)(F)C(F)(F)C(F)(F)CCI",
    "outcome": "inactive"
  },
  {
    "compound": "O=C(O)C(F)(F)C(F)(F)OC(F)(F)F",
    "outcome": "inactive"
  },
  {
    "compound": "O=C(O)C(F)(F)C(F)(F)C(F)(F)C(F)(F)C(F)(F)C(F)(F)C(F)(F)C(F)(F)C(F)(F)C(F)(F)C(F)(F)C(F)(F)F",
    "outcome": "inactive"
  }
]

The value of outcome measured for the compound C=CC(F)(F)C(F)(F)C(F)(F)C(F)(F)C(F)(F)C(F)(F)C(F)(F)C(F)(F)F turned out to be inactive

The value of outcome measured for the compound OCCCC(F)(F)C(F)(F)C(F)(F)F turned out to be inactive

The value of outcome measured for the compound C=C(C)C(=O)OCC(F)(F)C(F)(F)C(F)(F)F turned out to be inactive

* * *

Read-out: Vascular endothelial growth factor receptor 2 (Homo sapiens)
Test: BSK_4H_VEGFRII: BioMAP Diversity Plus: 4H Assay for Vascular endothelial growth factor receptor 2 (VEGFR2) Biomarker Activity (AID 2283031)
Details: primary human endothelial cells (HUVEC); actives raise or lower the signal
Activity calls are given as the source filed them. The calls were made as follows: active = hit-call score of the fitted dose curve at least 0.9, where 1 is the maximum; inactive = score below 0.9.
Write down one outcome, taken from active, inactive

[
  {
    "compound": "O=C(O)C(F)(F)C(F)(F)F",
    "qualitativeLabel": "inactive"
  },
  {
    "compound": "CCc1c(Br)c(Br)c(Br)c(Br)c1Br",
    "qualitativeLabel": "inactive"
  },
  {
    "compound": "CCCCC(CC)COP(=O)(O)OCC(CC)CCCC (stereo not drawn)",
    "qualitativeLabel": "inactive"
  },
  {
    "compound": "C=C(C)C(=O)OCC(F)(F)C(F)(F)C(F)(F)C(F)(F)C(F)(F)C(F)(F)C(F)(F)F",
    "qualitativeLabel": "inactive"
  },
  {
    "compound": "NC(=O)C(F)(F)C(F)(F)C(F)(F)C(F)(F)F",
    "qualitativeLabel": "inactive"
  }
]

--- query ---
Could you please tell me the result logged for O=S(=O)(O)C(F)(F)C(F)(F)C(F)(F)C(F)(F)C(F)(F)C(F)(F)C(F)(F)F in this assay? inactive

* * *

Target: Hypoxia-inducible factor 1-alpha (Homo sapiens)
Experiment: ATG_HIF1a_CIS: Attagene CIS-FACTORIAL HepG2 Assay for human Hypoxia Inducible Factor 1 (HIF1A) (AID 2282951)
Settings: HepG2 Attagene cis-factorial HIF1a reporter transcription; actives raise or lower the signal
Activity calls are given as the source filed them. The calls were made as follows: active = hit-call score of the fitted dose curve at least 0.9, where 1 is the maximum; inactive = score below 0.9.
Write down one outcome, taken from active, inactive

The following molecules have reported results that may help.
[
  {
    "givenSmiles": "N=C(N)C(F)(F)C(F)(F)C(F)(F)C(F)(F)C(F)(F)C(F)(F)C(F)(F)F",
    "qualitativeLabel": "active"
  },
  {
    "givenSmiles": "Cc1cc(C)cc(O)c1",
    "qualitativeLabel": "inactive"
  },
  {
    "givenSmiles": "O=S(=O)(OCC(F)F)C(F)(F)F",
    "qualitativeLabel": "inactive"
  },
  {
    "givenSmiles": "Cc1ccc(S(=O)(=O)OCC(F)(F)C(F)(F)C(F)(F)C(F)(F)C(F)(F)C(F)F)cc1",
    "qualitativeLabel": "inactive"
  },
  {
    "givenSmiles": "FC(F)(Br)C(F)(F)C(F)(F)C(F)(F)C(F)(F)C(F)(F)Br",
    "qualitativeLabel": "inactive"
  }
]

--- query ---
Could you please tell me the result logged for [Co] in this assay? inactive

* * *

Target: human Peroxisome Proliferator-activated Receptor alpha (PPARa), PPARA (gene 5465)
Assay: ATG_PPARa_TRANS: Attagene TRANS-FACTORIAL HepG2 Assay for human Peroxisome Proliferator-activated Receptor alpha (PPARa) (AID 2283001)
Records with an inconclusive call do not appear. Activity calls are given as the source filed them. The calls were made as follows: active = hit-call score of the fitted dose curve at least 0.9, where 1 is the maximum; inconclusive = response in the unintended direction; inactive = score below 0.9.
Write down one outcome, taken from 1 (yes) (active), 0 (no) (inactive)

[
  {
    "compound": "OCC(F)(F)C(F)(F)C(F)(F)C(F)F",
    "assayTarget": "human Peroxisome Proliferator-activated Receptor alpha (PPARa), PPARA (gene 5465)",
    "qualitativeLabel": "0 (no)"
  }
]

Could you please tell me the result logged for Cc1cccc(N(C)C)c1 in this assay? 0 (no)

Could you please tell me the result logged for C=C(C)C(=O)OCC(F)(F)C(F)(F)C(F)(F)F in this assay? 0 (no)

Could you please tell me the result logged for O=C(O)C(F)(F)C(F)(F)C(F)(F)C(F)(F)C(F)(F)C(F)(F)C(F)(F)C(F)(F)C(F)(F)C(F)F in this assay? 1 (yes)

Could you please tell me the result logged for CCN(CC)c1ccc2c(C)cc(=O)oc2c1 in this assay? 0 (no)

Could you please tell me the result logged for O=C(Cl)C(F)(F)C(F)(F)C(F)(F)C(F)(F)C(F)(F)C(F)(F)C(F)(F)C(F)(F)F in this assay? 1 (yes)

Could you please tell me the result logged for O=S(=O)(OCCOC(F)(F)F)C(F)(F)F in this assay? 0 (no)

Could you please tell me the result logged for OCC(F)(F)C(F)(F)C(F)(F)C(F)(F)C(F)(F)C(F)(F)F in this assay? 0 (no)

Could you please tell me the result logged for O=C(C=Cc1ccccc1)OCC=Cc1ccccc1 in this assay? 0 (no)

Could you please tell me the result logged for Nc1cc(Cl)c(N)c(Cl)c1 in this assay? 0 (no)

Could you please tell me the result logged for CCCCOCCOCCOC(=O)CCCCC(=O)OCCOCCOCCCC in this assay? 1 (yes)

Could you please tell me the result logged for CN(C)Cc1ccccc1O in this assay? 0 (no)

Could you please tell me the result logged for C1COCCN1 in this assay? 0 (no)

Could you please tell me the result logged for O=C(O)C(F)(F)C(F)(F)C(F)(F)F in this assay? 0 (no)

Could you please tell me the result logged for CC(C)c1ccccc1N in this assay? 0 (no)

Could you please tell me the result logged for OC[C@@H](O)[C@@H](O)[C@H](O)[C@@H](O)CO in this assay? 0 (no)

Could you please tell me the result logged for CS(C)(=O)=O in this assay? 0 (no)

Could you please tell me the result logged for FC1CC(F)(F)C(F)(F)C1(F)F (stereo not given) in this assay? 0 (no)

Could you please tell me the result logged for Oc1ccc(Nc2ccccc2)cc1 in this assay? 0 (no)

Could you please tell me the result logged for FC(F)(F)C(F)(F)C(F)(F)C(F)(F)C(F)(F)C(F)(F)C(F)(F)Br in this assay? 0 (no)
